system: 217524-143-R1-J4-PDC spheroids with HUVEC/MSC, viability; experiment: Anticancer human tumor 217524-143-R1-J4-PDC patient-derived pancreatic carcinoma cell line growth inhibition [CLK]; conditions: second compound 0.0316 µM; first compound 0.1 µM; active means viability on the fitted dose curve at most 10% of control; inactive means the rest;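 further: spheroids exposed to agents for seven days before reading; 100% = DMSO vehicle control viability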
Just give me one of these, please: 1 = active, 0 = inactive

## Task Assay result, entry CC(CO)NC(=O)c1cc(-c2ccc(Cl)cc2)nn(-c2cnn(C)c2)c1=O (stereo not given) + CN1CCN(c2cc(C(=O)Nc3cc4cc(-c5cnn(C)c5)ccc4cn3)ccn2)CC1 — outcome?
## Result 0

## Task Assay result, entry CC(=O)O[C@H]1C(=O)[C@@]2(C)[C@H]([C@H](OC(=O)c3ccccc3)[C@]3(O)C[C@H](OC(=O)[C@H](O)[C@@H](NC(=O)c4ccccc4)c4ccccc4)C(C)=C1C3(C)C)[C@]1(OC(C)=O)CO[C@@H]1C[C@@H]2O + CNC(=O)c1ccc(Nc2nc(OC3CCCC3)c3c(-c4ccc5nc(C)oc5c4)c[nH]c3n2)c(OC)c1 — outcome?
## Result 0

## Task Assay result, entry CC(Nc1ccc2c(c1)OCCn1cc(N3C(=O)OCC3C(F)F)nc1-2)C(N)=O (stereo not given) + CNC(=O)c1ccc(Nc2nc(OC3CCCC3)c3c(-c4ccc5nc(C)oc5c4)c[nH]c3n2)c(OC)c1 — outcome?
## Result 0

## Task Assay result, entry CCCS(=O)(=O)Nc1ccc(F)c(C(=O)c2c[nH]c3ncc(-c4ccc(Cl)cc4)cc23)c1F + CNC(=O)c1ccc(Nc2nc(OC3CCCC3)c3c(-c4ccc5nc(C)oc5c4)c[nH]c3n2)c(OC)c1 — outcome?
## Result 0

## Task Assay result, entry CC(Nc1ccc2c(c1)OCCn1cc(N3C(=O)OCC3C(F)F)nc1-2)C(N)=O (stereo not given) + CN1CCN(c2cc(C(=O)Nc3cc4cc(-c5cnn(C)c5)ccc4cn3)ccn2)CC1 — outcome?
## Result 0

## Task Assay result, entry CCc1c2c(nc3ccc(O)cc13)-c1cc3c(c(=O)n1C2)COC(=O)[C@]3(O)CC + CN1CCN(c2cc(C(=O)Nc3cc4cc(-c5cnn(C)c5)ccc4cn3)ccn2)CC1 — outcome?
## Result 0

## Task Assay result, entry COC1C=CCC(C)C(C)S(=O)(=O)NC(=O)c2ccc3c(c2)N(CC2CCC21)CC1(CCCc2cc(Cl)ccc21)CO3 (stereo not given) + CN1CCN(c2cc(C(=O)Nc3cc4cc(-c5cnn(C)c5)ccc4cn3)ccn2)CC1 — outcome?
## Result 0

## Task Assay result, entry CCc1c2c(nc3ccc(O)cc13)-c1cc3c(c(=O)n1C2)COC(=O)[C@]3(O)CC + CNC(=O)c1ccc(Nc2nc(OC3CCCC3)c3c(-c4ccc5nc(C)oc5c4)c[nH]c3n2)c(OC)c1 — outcome?
## Result 0

## Task Assay result, entry CC1(C)CCC(CN2CCN(c3ccc(C(=O)NS(=O)(=O)c4ccc(NCC5CCOCC5)c([N+](=O)[O-])c4)c(Oc4cnc5[nH]ccc5c4)c3)CC2)=C(c2ccc(Cl)cc2)C1 + CNC(=O)c1ccc(Nc2nc(OC3CCCC3)c3c(-c4ccc5nc(C)oc5c4)c[nH]c3n2)c(OC)c1 — outcome?
## Result 0

## Task Assay result, entry COc1c(OCCCN2CCOCC2)ccc2c3n(c(=NC(=O)c4cnc(N)nc4)nc12)CCN3 + CN1CCN(c2cc(C(=O)Nc3cc4cc(-c5cnn(C)c5)ccc4cn3)ccn2)CC1 — outcome?
## Result 1
